Listing: solvation free energy, 298 K of selected compounds
experiment notes: solvent given as SMILES
cond: in CCCCCCCCN(CCCCCCCC)CCCCCCCC
Give a bare numeral; the unit kcal/mol is implied.

These solved cases illustrate the format of a correct answer.
INSERT INTO assay_data (structure_notation, observed_value) VALUES
  ('ClCCCl', -3.6),
  ('ClC(Cl)(Cl)Cl', -3.79),
  ('C1CCCCC1', -3.86);

QUERY: Dear colleague, please send me the reported solvation free energy, 298 K for ClCCl when you can.
RESULT: -2.82

----------
experiment notes: solvent given as SMILES
cond: in c1ccncc1
observation type: solvation free energy, 298 K (kcal/mol)
The reply should be a number in kcal/mol, with the unit left off.

INSERT INTO assay_data (structure_notation, observation_type, observed_value) VALUES
  ('CC(C)CC(C)C', 'solvation free energy, 298 K', -3.4),
  ('Cc1ccccc1', 'solvation free energy, 298 K', -5.11),
  ('CCCC(C)C', 'solvation free energy, 298 K', -3.06);

QUERY: Provide one value: measured solvation free energy, 298 K of O=S=O
RESULT: -4.82

QUERY: Let me know recorded solvation free energy, 298 K for c1ccccc1 , thanks.
RESULT: -4.51

QUERY: Return solvation free energy, 298 K for the following molecule: C1CCCCC1
RESULT: -3.75

Data provenance: the CombiSolv-Exp solvation set (Vermeire and Green 2021)
